These entries and their values trace back to patent US6689762B1.

- Test system: CEM/0 cells
- protocol_description: Sequential and concurrent combination cytotoxicity of PEG-ASNase and Saquinavir
- Assay type: cell-based, human
- test_settings: Homo sapiens, CCRF-CEM, read-out: IC50 in combination, Saquinavir part, concurrent combination of PEG-ASNase and Saquinavir; CEM/0 T-cells
readout_type: IC50 (µM)

>  <smiles_str>
CC(C)(C)NC(=O)[C@@H]1C[C@@H]2CCCC[C@@H]2CN1C[C@@H](O)[C@H](Cc1ccccc1)NC(=O)[C@H](CC(N)=O)NC(=O)c1ccc2ccccc2n1

>  <unit_of_measure>
µM

>  <result_number>
14.5

$$$$
